The values you see were collected from ChEMBL document CHEMBL1136926.

test system: UniProt P49684
Sequence (P49684 whole entry): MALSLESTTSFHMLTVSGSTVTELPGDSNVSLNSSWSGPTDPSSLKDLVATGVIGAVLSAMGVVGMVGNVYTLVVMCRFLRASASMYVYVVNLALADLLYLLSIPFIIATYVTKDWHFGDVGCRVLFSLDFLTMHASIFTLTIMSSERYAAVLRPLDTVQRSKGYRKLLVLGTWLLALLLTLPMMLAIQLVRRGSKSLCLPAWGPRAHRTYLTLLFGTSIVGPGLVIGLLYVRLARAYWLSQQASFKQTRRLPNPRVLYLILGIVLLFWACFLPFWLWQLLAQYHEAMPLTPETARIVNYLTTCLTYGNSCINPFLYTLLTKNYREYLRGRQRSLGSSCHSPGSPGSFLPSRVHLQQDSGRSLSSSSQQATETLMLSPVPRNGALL
run description: Agonist activity at UT2 receptor in Albino rat aorta assessed as induction of aortic contraction
Positions of bridges follow the written chain, without caps; N, C: chain ends. Non-standard residues stand in square brackets, D forms with d. Residues, ends and D or L forms follow the SMILES beside them. Phe(4-Cl) = N[C@@H](Cc1ccc(Cl)cc1)C(=O)O; 1Nal = N[C@@H](Cc1cccc2ccccc12)C(=O)O; Pen = CC(C)(S)[C@H](N)C(=O)O
Values of EC50 strictly less than 5 nM map to yes (1), and values of at least 5 nM map to no (0).

>>> cat("CC(C)[C@H](NC(=O)[C@@H]1CSSC(C)(C)[C@H](NC(=O)[C@@H](N)Cc2ccccc2)C(=O)N[C@@H](Cc2ccccc2)C(=O)N[C@@H](Cc2c[nH]c3ccccc23)C(=O)N[C@@H](CCCCN)C(=O)N[C@@H](Cc2ccc(O)cc2)C(=O)N1)C(=O)O (H-F[Pen]FWKYCV-OH; disulfide 2-7)")
"yes (1)"
>>> cat("CC(C)[C@H](NC(=O)[C@@H]1CSSC[C@H](NC(=O)[C@@H](N)CC(=O)O)C(=O)N[C@@H](Cc2ccccc2)C(=O)N[C@@H](Cc2c[nH]c3ccccc23)C(=O)N[C@@H](CCCCN)C(=O)N[C@@H](Cc2ccc(O)cc2)C(=O)N1)C(=O)O (H-DCFWKYCV-OH; disulfide 2-7)")
"yes (1)"
>>> cat("CC(C)[C@H](NC(=O)[C@@H]1CSSC(C)(C)[C@H](NC(=O)[C@@H](N)CCCCN)C(=O)N[C@@H](Cc2ccccc2)C(=O)N[C@@H](Cc2c[nH]c3ccccc23)C(=O)N[C@@H](CCCCN)C(=O)N[C@@H](Cc2ccc(O)cc2)C(=O)N1)C(=O)O (H-K[Pen]FWKYCV-OH; disulfide 2-7)")
"no (0)"
>>> cat("CC(C)[C@H](NC(=O)[C@@H]1CSSC(C)(C)[C@H](NC(=O)[C@@H](N)Cc2ccc(Cl)cc2)C(=O)N[C@@H](Cc2ccccc2)C(=O)N[C@@H](Cc2c[nH]c3ccccc23)C(=O)N[C@@H](CCCCN)C(=O)N[C@@H](Cc2ccc(O)cc2)C(=O)N1)C(=O)O (H-[Phe(4-Cl)][Pen]FWKYCV-OH; disulfide 2-7)")
"yes (1)"
>>> cat("CC(C)[C@H](NC(=O)[C@@H]1CSSC(C)(C)[C@H](NC(=O)[C@@H](N)Cc2cccc3ccccc23)C(=O)N[C@@H](Cc2ccccc2)C(=O)N[C@@H](Cc2c[nH]c3ccccc23)C(=O)N[C@@H](CCCCN)C(=O)N[C@@H](Cc2ccc(O)cc2)C(=O)N1)C(=O)O (H-[1Nal][Pen]FWKYCV-OH; disulfide 2-7)")
"no (0)"
>>> cat("CC(C)[C@H](NC(=O)[C@@H]1CSSC(C)(C)[C@H](NC(=O)[C@H](C)N)C(=O)N[C@@H](Cc2ccccc2)C(=O)N[C@@H](Cc2c[nH]c3ccccc23)C(=O)N[C@@H](CCCCN)C(=O)N[C@@H](Cc2ccc(O)cc2)C(=O)N1)C(=O)O")
"no (0)"
